Here, each record is paired with measured Motility data.
Test system: Onchocerca lienalis
experimentNotes: MMV: Percent motility assay at a compound concentration of 7.8e-7 M. Activity score legend: 3: Active, 2: Moderately active; 1: Inactive, 0: Toxic
Assay type: functional
runConditions: at 0.78 µM
Your answer should be a plain number; it is taken to be in %.

Examples with answers:
compound: CCOc1c(Cl)cc(CNC(C)C(O)c2ccccc2)cc1OC (configuration not stated)
unitsLabel: %
Motility: 100
--
compound: OC1=C2C(=Nc3ccccc3SC2c2ccccc2)c2ccccc21 (configuration not stated)
unitsLabel: %
Motility: 100
--
compound: COc1ccc(C(O)(CCC(C)C)C(CN2CCOCC2)c2ccc(Cl)cc2)cc1.Cl (configuration not stated)
unitsLabel: %
Motility: 100
--
compound: Oc1c2c(nc3cc(-c4ccccc4)nn13)CCCC2
unitsLabel: %
Motility: 100
--
compound: COc1cc(C(=O)Nc2ccc(-c3nc4ccccc4[nH]3)cc2)cc(OC)c1OC
unitsLabel: %
Motility: 100

Recorded Motility (compound CCOc1ccc2nc(C)cc(Nc3ccc(N(C)C)cc3)c2c1.Cl ): 100

Lab note: measured Motility of COc1ccc(C2Sc3ccccc3N=C3C2=C(O)c2ccccc23)cc1 (configuration not stated) was 100

Looking up CN1CCN(c2ccc(Nc3c4ccccc4nc4ccccc34)cc2)CC1 , I see its Motility listed as 100
